Test: activity coefficient (dimensionless); of the first substance listed, at infinite dilution; xn = mol fraction of the nth substance listed
Conditions: 353 K; 101.33 kPa; Liquid; Chromatography; x1 = 0
Here, each record is paired with measured activity coefficient data.
Hey, just send me the number, nothing else.

Use these answered entries as a reference point.
compound | activity coefficient
CCCC [butane] + CCCCCCCCCC[N+](C)(C)CCCCCCCCCC.[O-][Cl+3]([O-])([O-])[O-] | 1.24
C1CCOC1 [tetrahydrofuran] + CCCCCCCCCC[N+](C)(C)CCCCCCCCCC.F[B-](F)(F)F | 0.695

Input line: # input compound: C1CCCCCC1 [cycloheptane] + CCCCCCCCCC[N+](C)(C)CCCCCCCCCC.[O-][Cl+3]([O-])([O-])[O-] ; wanted: its activity coefficient
Output line: 1.78
